EXPERIMENTAL_PROTOCOL: Single ascending oral dose study in healthy volunteers: plasma pharmacokinetics
Format: in vivo, human
CONDITION_DETAILS: human, plasma, oral, 175 mg, 72 Hours Postdose; 175 mg; read-out: Plasma concentration, Median
MEASURE_NAME: concentration at 72 h (ng/mL)

Cn1cc(S(=O)(=O)[C@@](C)(F)C2CCN(C(=O)Nc3ccon3)CC2)c(C(F)F)n1: 73.2

---

EXPERIMENTAL_PROTOCOL: Food effect cross-over study, 200 mg (25 mg tablets), healthy volunteers: plasma pharmacokinetics
Format: in vivo, human
CONDITION_DETAILS: human, plasma, po, single 200 mg oral dose, Fasted (N = 10), read-out: Tmax, Mean
MEASURE_NAME: Tmax

Cn1cc(S(=O)(=O)[C@@](C)(F)C2CCN(C(=O)Nc3ccon3)CC2)c(C(F)F)n1: 4.7 h

---

EXPERIMENTAL_PROTOCOL: Single ascending oral dose study in healthy volunteers: plasma pharmacokinetics
Format: in vivo, human
CONDITION_DETAILS: human, plasma, oral, 350 mg; read-out: AUC0-24, Mean
MEASURE_NAME: AUC(0-t) (ng·h/mL)

Cn1cc(S(=O)(=O)[C@@](C)(F)C2CCN(C(=O)Nc3ccon3)CC2)c(C(F)F)n1: 45600

---

EXPERIMENTAL_PROTOCOL: Single ascending oral dose study in healthy volunteers: plasma pharmacokinetics
Type: in vivo, human
CONDITION_DETAILS: human, plasma, oral, 10 mg; read-out: AUC0-48, Median
MEASURE_NAME: AUC(0-t) (ng·h/mL)

Cn1cc(S(=O)(=O)[C@@](C)(F)C2CCN(C(=O)Nc3ccon3)CC2)c(C(F)F)n1: 3190

---

EXPERIMENTAL_PROTOCOL: Single ascending oral dose study in healthy volunteers: plasma pharmacokinetics
Type: in vivo, human
CONDITION_DETAILS: human, plasma, oral, 50 mg; read-out: Half-Life Lambda Z, Geometric Mean (converted)
MEASURE_NAME: half-life (h)

Cn1cc(S(=O)(=O)[C@@](C)(F)C2CCN(C(=O)Nc3ccon3)CC2)c(C(F)F)n1: 13.4

---

EXPERIMENTAL_PROTOCOL: Food effect cross-over study, 200 mg (25 mg tablets), healthy volunteers: plasma pharmacokinetics
Type: in vivo, human
CONDITION_DETAILS: human, plasma, oral, 4 hours postdose, Fed, read-out: Plasma concentration, Median
MEASURE_NAME: concentration at 4 h (ng/mL)

Cn1cc(S(=O)(=O)[C@@](C)(F)C2CCN(C(=O)Nc3ccon3)CC2)c(C(F)F)n1: 3030

---

EXPERIMENTAL_PROTOCOL: Single ascending oral dose study in healthy volunteers: plasma pharmacokinetics
Format: in vivo, human
CONDITION_DETAILS: human, plasma, oral, 25 mg; read-out: AUC0-24, Mean
MEASURE_NAME: AUC(0-t) (ng·h/mL)

Cn1cc(S(=O)(=O)[C@@](C)(F)C2CCN(C(=O)Nc3ccon3)CC2)c(C(F)F)n1: 4650

---

EXPERIMENTAL_PROTOCOL: Single ascending oral dose study in healthy volunteers: plasma pharmacokinetics
Format: in vivo, human
CONDITION_DETAILS: human, plasma, oral, 50 mg; read-out: Cmax, Mean
MEASURE_NAME: Cmax (ng/mL)

Cn1cc(S(=O)(=O)[C@@](C)(F)C2CCN(C(=O)Nc3ccon3)CC2)c(C(F)F)n1: 500
